Target: ULK3 (human)
Experiment: KINOMEscan competition binding
Conditions: compound 10.0 µM
Parameter measured: kinase still bound, per cent of control (%)

- Molecule: "COc1cc(C(=O)NC2CCN(C)CC2)ccc1Nc1ncc2c(n1)N(C1CCCC1)C(C)CC(=O)N2C (stereo unspecified)"
  Parameter measured: "kinase still bound, per cent of control"
  Meas value: 100
- Molecule: "Cc1ccc(NC(=O)c2cccc(C(C)(C)C#N)c2)cc1Nc1ccc2ncn(C)c(=O)c2c1"
  Parameter measured: "kinase still bound, per cent of control"
  Meas value: 97
- Molecule: "Cc1ccc2nc(NCCN)c3ncc(C)n3c2c1"
  Parameter measured: "kinase still bound, per cent of control"
  Meas value: 76
- Molecule: "O=C1Nc2ccc(I)cc2/C1=C/c1cc(Br)c(O)c(Br)c1"
  Parameter measured: "kinase still bound, per cent of control"
  Meas value: 12
- Molecule: "CN(C)C/C=C/C(=O)Nc1cccc(Nc2ncc3c(n2)N(C)c2ccccc2C(=O)N3C)c1"
  Parameter measured: "kinase still bound, per cent of control"
  Meas value: 45
- Molecule: "Nc1ccc(-c2ccc3ncc4ccc(=O)n(-c5cccc(C(F)(F)F)c5)c4c3c2)cn1"
  Parameter measured: "kinase still bound, per cent of control"
  Meas value: 100
- Molecule: "C=CC(=O)Nc1cccc(Nc2nc(N[C@H]3CC[C@H](N(C)C)CC3)nc3c2ncn3C(C)C)c1"
  Parameter measured: "kinase still bound, per cent of control"
  Meas value: 52
- Molecule: "C=CC(=O)Nc1cc(NC(=O)c2ccc(C)c(NC(=O)c3ccno3)c2)cc(C(F)(F)F)c1"
  Parameter measured: "kinase still bound, per cent of control"
  Meas value: 97
- Molecule: "CCCS(=O)(=O)Nc1ccc(F)c(C(=O)c2c[nH]c3ncc(-c4ccc(Cl)cc4)cc23)c1F"
  Parameter measured: "kinase still bound, per cent of control"
  Meas value: 46
- Molecule: "CCC(=O)N1CCN(c2ccc(-n3c(=O)ccc4cnc5ccc(-c6cnc7ccccc7c6)cc5c43)cc2C(F)(F)F)CC1"
  Parameter measured: "kinase still bound, per cent of control"
  Meas value: 100
- Molecule: "O=C(O)c1ccc(Nc2ncc3c(n2)-c2ccc(Cl)cc2C(c2c(F)cccc2F)=NC3)cc1"
  Parameter measured: "kinase still bound, per cent of control"
  Meas value: 57

* * *

Target: UniProtKB Q9BRS2
Sequence (Q9BRS2 whole entry, looked up): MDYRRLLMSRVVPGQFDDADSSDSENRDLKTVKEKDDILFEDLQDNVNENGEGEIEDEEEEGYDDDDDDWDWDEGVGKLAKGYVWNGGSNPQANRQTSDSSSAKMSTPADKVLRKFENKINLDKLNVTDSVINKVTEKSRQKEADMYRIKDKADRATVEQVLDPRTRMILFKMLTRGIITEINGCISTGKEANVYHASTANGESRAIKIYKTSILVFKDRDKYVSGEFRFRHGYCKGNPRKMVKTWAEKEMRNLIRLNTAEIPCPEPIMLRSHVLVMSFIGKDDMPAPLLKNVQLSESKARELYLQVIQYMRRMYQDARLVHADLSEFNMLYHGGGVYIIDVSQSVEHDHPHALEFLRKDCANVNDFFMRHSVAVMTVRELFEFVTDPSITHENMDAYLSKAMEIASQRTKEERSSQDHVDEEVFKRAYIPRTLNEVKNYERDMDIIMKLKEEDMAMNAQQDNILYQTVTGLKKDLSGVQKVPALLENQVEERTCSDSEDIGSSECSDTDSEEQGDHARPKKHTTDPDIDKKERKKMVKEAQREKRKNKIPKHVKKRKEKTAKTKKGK
Experiment: KINOMEscan competition binding
Settings: compound 10.0 µM
In plain terms, low kinase still bound, per cent of control, meaning strictly below 70%, gives TRUE, and everything else gives FALSE.

- Compound: "N#Cc1c(NC(=O)c2cccc3ccccc23)sc2c1CCCC2"
  Assigned class: "FALSE"
- Compound: "CCN1CCN(Cc2ccc(Nc3ncc4c(n3)N(C)c3ccccc3C(=O)N4C)cc2C(F)(F)F)CC1"
  Assigned class: "TRUE"
- Compound: "Cc1ccc(NC(=O)c2cccc(C(C)(C)C#N)c2)cc1Nc1ccc2ncn(C)c(=O)c2c1"
  Assigned class: "FALSE"
- Compound: "O=C1Nc2ccc(I)cc2/C1=C/c1cc(Br)c(O)c(Br)c1"
  Assigned class: "TRUE"
- Compound: "CCCS(=O)(=O)Nc1ccc(F)c(C(=O)c2c[nH]c3ncc(-c4ccc(Cl)cc4)cc23)c1F"
  Assigned class: "FALSE"
- Compound: "O=C(NC1CC1)c1cccc(-c2ccc3c(NC(=O)C4CC4)n[nH]c3c2)c1"
  Assigned class: "TRUE"
- Compound: "CC[C@@H]1C(=O)N(C)c2cnc(Nc3ccc(C(=O)NC4CCN(C)CC4)cc3OC)nc2N1C1CCCC1"
  Assigned class: "FALSE"
- Compound: "CCC(=O)N1CCN(c2ccc(-n3c(=O)ccc4cnc5ccc(-c6cnc7ccccc7c6)cc5c43)cc2C(F)(F)F)CC1"
  Assigned class: "FALSE"
- Compound: "COc1cc(C(=O)NC2CCN(C)CC2)ccc1Nc1ncc2c(n1)N(C1CCCC1)CCC(=O)N2C(C)C"
  Assigned class: "FALSE"
- Compound: "C=CC(=O)Nc1cc(NC(=O)c2ccc(C)c(NC(=O)c3ccno3)c2)cc(C(F)(F)F)c1"
  Assigned class: "FALSE"
- Compound: "O=C(O)c1ccc(Nc2ncc3c(n2)-c2ccc(Cl)cc2C(c2c(F)cccc2F)=NC3)cc1"
  Assigned class: "FALSE"
- Compound: "Cc1ccc2nc(NCCN)c3ncc(C)n3c2c1"
  Assigned class: "FALSE"
- Compound: "CN(C)C/C=C/C(=O)Nc1cccc(Nc2ncc3c(n2)N(C)c2ccccc2C(=O)N3C)c1"
  Assigned class: "TRUE"
- Compound: "OCCCNc1cc(-c2ccnc(Nc3cccc(Cl)c3)n2)ccn1"
  Assigned class: "FALSE"
- Compound: "C=CC(=O)Nc1cccc(Oc2nc(Nc3ccc(N4CCN(C)CC4)cc3OC)ncc2Cl)c1"
  Assigned class: "TRUE"
- Compound: "C[C@@H](Oc1cc(-n2cnc3ccc(CN4CCN(C)CC4)cc32)sc1C(N)=O)c1ccccc1C(F)(F)F"
  Assigned class: "TRUE"
- Compound: "C=CC(=O)Nc1cccc(Nc2nc(N[C@H]3CC[C@H](N(C)C)CC3)nc3c2ncn3C(C)C)c1"
  Assigned class: "TRUE"
- Compound: "Nc1ccc(-c2ccc3ncc4ccc(=O)n(-c5cccc(C(F)(F)F)c5)c4c3c2)cn1"
  Assigned class: "TRUE"
- Compound: "Cc1cc([C@@H](C)Nc2ccccc2C(=O)O)c2nc(N3CCOCC3)cc(=O)n2c1"
  Assigned class: "FALSE"
- Compound: "Cn1c(=O)n(-c2ccc(C(C)(C)C#N)cc2)c2c3cc(-c4cnc5ccccc5c4)ccc3ncc21"
  Assigned class: "FALSE"
- Compound: "O=C(NOC[C@H](O)CO)c1ccc(F)c(F)c1Nc1ccc(I)cc1F"
  Assigned class: "FALSE"
- Compound: "COc1cc(C(=O)NC2CCN(C)CC2)ccc1Nc1ncc2c(n1)N(C1CCCC1)C(C)CC(=O)N2C (stereo not given)"
  Assigned class: "FALSE"
- Compound: "COc1cc(N2CCN(C)CC2)ccc1Nc1nc(N)c(C(=O)c2c(Cl)cccc2Cl)s1"
  Assigned class: "FALSE"
- Compound: "Cc1ccc(C(=O)Nc2cccc(C(F)(F)F)c2)cc1Nc1cncc(C(N)=O)c1"
  Assigned class: "FALSE"
